# procedure_text: Preliminary tests of equilibration time for solubility in SC-CO2 (Table S1)
# Assay type: physicochemical
# condition_notes: supercritical CO2, 65 °C, organic solvent or mixture, thermodynamic from solid; T 338, P 30, Time 60; read-out: Solubility (preliminary test)
assay_readout: solubility at 60 min (µg/mL)
One number for each entry, in µg/mL.

Qu. Requested field: solubility at 60 min. Item: CN(C)CCc1c[nH]c2ccc(Cn3cncn3)cc12 [Rizatriptan, Rizatriptan benzoate]
Ans. 78.8

###

# procedure_text: Preliminary tests of equilibration time for solubility in SC-CO2 (Table S1)
# Format: physicochemical
# condition_notes: supercritical CO2, 65 °C, organic solvent or mixture, thermodynamic from solid; T 338, P 30, Time 120; read-out: Solubility (preliminary test)
assay_readout: solubility at 120 min (µg/mL)
Numbers only, in µg/mL.

Qu. # lookup: solubility at 120 min of CN(C)CCc1c[nH]c2ccc(Cn3cncn3)cc12 [Rizatriptan, Rizatriptan benzoate]
Ans. 213
